assay: Pharmacokinetics in rats after single i.v. dose; format: in vivo, Male Wistar rats; settings: rat, in vivo, iv, read-out: volume of distribution
Numbered stars: 1 amine (or outer) side, 2 acyl side, 3 side chain; on linkers, the order of the positions; unused ones are H or OH. Bridge positions count the residues as written; N and C are the ends. Square brackets hold non-standard residues; d marks the D form. Peptide text beside a SMILES is read from it. CO = O=C([*:1])[*:2]; Nlys = NCCCCNCC(=O)O

# compound, unitOfMeasurement, Vd
records = [
    ("CSCC[C@@H]1NC(=O)[C@H]([C@@H](C)O)NC(=O)CN(C(=O)[C@@H](N)CCCCN)CCCCNC(=O)NCCCCN(CC(=O)N[C@@H](CC(C)C)C(N)=O)C(=O)[C@H](CC(=O)O)NC(=O)[C@H](CC(C)C)NC1=O [visabron c (4–4)] (H-K[Nlys]TMLD[Nlys]L-NH2; linker 2-7 via CO)", "L/kg", 0.39),
]

Origin of values: paper PMC8717366
